# study target: cGMP-specific 3',5'-cyclic phosphodiesterase (Homo sapiens)
# test: DRUGMATRIX: Phosphodiesterase PDE5 enzyme inhibition (substrate: [3H]cGMP + cGMP)
# Type: tissue-based
# test context: platelet; Not Active = under 50% inhibition at 10 µM

>  <substance>
COBALT(II) ACETYLACETONATE

>  <IC50>
Not Active

$$$$
>  <substance>
POLYVINYL ALCOHOL

>  <IC50>
Not Active

$$$$
>  <substance>
INSULIN HUMAN

>  <IC50>
Not Active

$$$$
>  <substance>
STANNOUS FLUORIDE

>  <IC50>
Not Active

$$$$
>  <substance>
THIMEROSAL

>  <IC50>
Not Active

$$$$
